Recorded measurements of phytotoxicity rating IPOHE, one per entry
tested on: ivyleaf morningglory (Ipomoea hederacea, IPOHE); test: Post-emerge test, greenhouse herbicide activity screening; format: in vivo; details: post-emerge, 250 g ai/ha, 14 days after application, rating scale 0-100
EXPERIMENTAL READOUT: phytotoxicity rating IPOHE

COc1c(Cl)ccc(-n2c(=O)cc(C(F)(F)F)n(C)c2=O)c1NC(=O)c1ccc2ccccc2c1 [2-202] ... 100
Cn1c(C(F)(F)F)cc(=O)n(-c2c(F)cc(Cl)c(OCC#N)c2NC(=O)OCc2ccccc2)c1=O [4-23] ... 100
COc1c(Cl)cc(F)c(-n2c(=O)cc(C(F)(F)F)n(C)c2=O)c1NC(=O)CCc1ccccc1 [2-86] ... 100
COc1c(Cl)cc(F)c(-n2c(=O)cc(C(F)(F)F)n(C)c2=O)c1NC(=O)c1ccc(I)cc1 [2-66] ... 90
Cn1c(C(F)(F)F)cc(=O)n(-c2c(F)cc(Cl)c(O)c2NC(=O)c2ccc3ccccc3c2)c1=O [Compound 2-194] ... 99
COc1c(Cl)cc(F)c(-n2c(=O)cc(C(F)(F)F)n(C)c2=O)c1NC(=O)OCc1cc(F)ccc1F [4-39] ... 100
COc1c(Cl)cc(F)c(-n2c(=O)cc(C(F)(F)F)n(C)c2=O)c1NC(=O)c1ccc(OC(F)(F)F)cc1 [2-72] ... 60
COc1c(Cl)cc(F)c(-n2c(=O)cc(C(F)(F)F)n(C)c2=O)c1NC(=O)c1cccc(Cl)c1 [2-54] ... 100
CCOC(=O)COc1c(Cl)cc(F)c(-n2c(=O)cc(C(F)(F)F)n(C)c2=O)c1NC(=O)C=Cc1ccccc1 [2-190] ... 90
COc1c(Cl)cc(F)c(-n2c(=O)cc(C(F)(F)F)n(C)c2=O)c1NC(=O)COc1ccccc1 [2-119] ... 100
COc1c(Cl)cc(F)c(-n2c(=O)cc(C(F)(F)F)n(C)c2=O)c1NC(=O)c1ccc(Cl)c(Cl)c1 [2-59] ... 100
COc1c(Cl)cc(F)c(-n2c(=O)cc(C(F)(F)F)n(C)c2=O)c1NC(=O)c1ccccc1Cl [2-53] ... 100
Cc1c(Cl)cc(F)c(-n2c(=O)cc(C(F)(F)F)n(C)c2=O)c1NC(=O)OCc1ccccc1Cl [4-54] ... 100
COc1c(Cl)cc(F)c(-n2c(=O)cc(C(F)(F)F)n(C)c2=O)c1NC(=O)OCc1ccc2c(c1)OCO2 [4-41] ... 100
CCOC(=O)C(=O)Nc1c(OC)c(Cl)cc(F)c1-n1c(=O)cc(C(F)(F)F)n(C)c1=O [2-118] ... 90
COc1c(Cl)cc(F)c(-n2c(=O)cc(C(F)(F)F)n(C)c2=O)c1NC(=O)OCc1ccc(F)cc1 [4-7] ... 100
COc1c(Cl)cc(F)c(-n2c(=O)cc(C(F)(F)F)n(C)c2=O)c1NC(=O)COC(C)=O [2-117] ... 100
COC(=O)N(C(=O)OC)c1c(OC)c(Cl)cc(F)c1-n1c(=O)cc(C(F)(F)F)n(C)c1=O [4-2] ... 100

====

tested on: sicklepod (Cassia obtusifolia, CASOB); assay: Post-emerge test, greenhouse herbicide activity screening; assay type: in vivo; details: 250 g ai/ha; post-emerge; 14 days after application; rating scale 0-100
Recorded measurements of Post-emerge Herbicidal Activity CASOB (phytotoxicity rating), one per entry
EXPERIMENTAL READOUT: Post-emerge Herbicidal Activity CASOB (phytotoxicity rating)

COc1c(Cl)cc(F)c(-n2c(=O)cc(C(F)(F)F)n(C)c2=O)c1NN=CC1CC1 ... 100
CCOC(=O)C(Cl)Cc1c(OC)c(Cl)cc(F)c1-n1nc(C(F)(F)F)n(C)c1=O (centres unmarked) ... 30
COc1cc(Cl)cc(Cl)c1-n1c(=O)cc(C(F)(F)F)n(C)c1=O ... 10
COc1c(Cl)cc(F)c(-n2c(=O)cc(C(F)(F)F)n(C)c2=O)c1NNC(=O)C1CC1 ... 75
COc1c(Cl)cc(F)c(-n2c(=O)cc(C(F)(F)F)n(C)c2=O)c1SC(C)C ... 10

====

tested on: barnyardgrass (Echinochloa crus-galli, ECHCG); test: Post-emerge test, greenhouse herbicide activity screening; assay type: in vivo; settings: post-emerge, 250 g ai/ha, phytotoxicity rating 0-100 at 14 days after application
Post-emerge Herbicidal Activity ECHCG below 40 gives Criterion not met; Post-emerge Herbicidal Activity ECHCG at or above it gives Criterion met.

Nc1c(O)c(Cl)cc(F)c1N1C(=O)C2CCCCN2C1=S (single isomer, unassigned) [12-2] ... Criterion met
Cc1c(Cl)cc(F)c(-n2c(=O)cc(C(F)(F)F)n(C)c2=O)c1NC(=O)OCc1ccc([N+](=O)[O-])cc1 ... Criterion not met
Cc1cccc(COC(=O)Nc2c(C)c(Cl)cc(F)c2-n2c(=O)cc(C(F)(F)F)n(C)c2=O)c1 ... Criterion met
Nc1c(OC2CCCC2)c(Cl)cc(F)c1N1C(=O)C2=C(CCCC2)C1=O ... Criterion not met
C=Cc1ccc(C(=O)Nc2c(OC)c(Cl)cc(F)c2N2C(=O)C3=C(CCCC3)C2=O)cc1 ... Criterion met
C#CCOc1c(Cl)cc(F)c(-n2nnn(CCCF)c2=O)c1N ... Criterion not met
COc1c(Cl)cc(F)c(N2C(=O)c3ccccc3C2=O)c1NC(=O)c1ccc(F)cc1F ... Criterion not met
Cc1nn(-c2c(Cl)cc(Cl)cc2NC(=O)c2ccc(F)cc2F)c(=O)n1C(F)F ... Criterion not met
Nc1c(O)c(Cl)cc(F)c1N1C(=O)C2CCCCN2C1=S (single isomer, unassigned) [12-3] ... Criterion not met

====

system: velvetleaf (Abutilon theophrasti, ABUTH); test: Post-emerge test, greenhouse herbicide activity screening; assay type: in vivo; conditions: Rate 250 g ai/ha; rating scale 0-100 (0 no damage, 100 complete death); 14 days after application
Recorded measurements of Post-emerge Herbicidal Activity, phytotoxicity rating ABUTH, one per entry
EXPERIMENTAL READOUT: Post-emerge Herbicidal Activity, phytotoxicity rating ABUTH

CCCCCOC(=O)C(C)(Cl)Cc1c(OC)c(Cl)cc(F)c1-n1c(=O)cc(C(F)(F)F)n(C)c1=O (stereo not shown) [14-37] ... 100
COc1c(Cl)cc(F)c(-n2c(=O)cc(C(F)(F)F)n(C)c2=O)c1CC(Cl)C(=O)OCC(C)C (single isomer, unassigned) [14-15] ... 90
COc1c(Cl)cc(F)c(-n2c(=O)cc(C(F)(F)F)n(C)c2=O)c1CC(C)(Cl)C(=O)OCC(C)C (stereo not shown) [14-40] ... 100
CCOC(=O)C(Br)Cc1c(OC)c(Cl)cc(F)c1-n1c(=O)cc(C(F)(F)F)n(C)c1=O (single isomer, unassigned) [14-33] ... 100

====

test system: large crabgrass (Digitaria sanguinalis, DIGSA); test: Pre-emerge test, greenhouse herbicide activity screening; format: in vivo; settings: 63 g ai/ha; pre-emerge; rated 14 days after application; 0 = no damage, 100 = complete death
EXPERIMENTAL READOUT: Pre-emerge Herbicidal Activity DIGSA (phytotoxicity rating, scale 0-100)

Cn1c(C(F)(F)F)cc(=O)n(-c2c(F)cc(Cl)c(OCc3ccccc3)c2N)c1=O ... 0
CC(C)Oc1c(Cl)cc(F)c(-n2c(=O)cc(C(F)(F)F)n(C)c2=O)c1N ... 80
COc1c(Cl)cc(F)c(-n2c(=O)cc(C(F)(F)F)n(C)c2=O)c1NS(=O)(=O)c1ccc(C)cc1 ... 0
C#CCOc1c(Cl)cc(F)c(-n2c(=O)cc(C(F)(F)F)n(C)c2=O)c1N ... 95
COc1c(Cl)cc(F)c(-n2c(=O)cc(C(F)(F)F)n(C)c2=O)c1NC(=O)c1ccc(C(C)(C)C)cc1 ... 0
Cn1c(C(F)(F)F)cc(=O)n(-c2c(F)cc(Cl)c(O)c2N)c1=O ... 0
O=c1cc(C(F)(F)F)[nH]c(=O)n1-c1c(F)cc(Cl)c(O)c1[N+](=O)[O-] ... 0
COc1c(Cl)cc(F)c(-n2c(=O)cc(C(F)(F)F)n(C)c2=O)c1NC(=O)C(C)(C)C ... 30
CCc1ccc(C(=O)Nc2c(OCC#N)c(Cl)cc(F)c2-n2c(=O)cc(C(F)(F)F)n(C)c2=O)cc1 ... 50
Cn1c(C(F)(F)F)cc(=O)n(-c2c(N)cc(OC(F)F)cc2F)c1=O ... 20
CCOc1c(Cl)cc(F)c(-n2c(=O)cc(C(F)(F)F)n(C)c2=O)c1N ... 40
CCOC(=O)C(C)Nc1cc(OC(F)F)cc(F)c1-n1c(=O)cc(C(F)(F)F)n(C)c1=O (stereo not shown) ... 40
COc1c(Cl)cc(F)c(-n2c(=O)cc(C(F)(F)F)n(C)c2=O)c1N(C(=O)C1CC1)C(=O)C1CC1 ... 0
COc1c(Cl)cc(F)c(-n2c(=O)cc(C(F)(F)F)n(C)c2=O)c1N(C(=O)C=C(C)C)C(=O)C=C(C)C ... 80
COc1c(Cl)cc(F)c(-n2c(=O)c(N)c(C(F)(F)F)n(C)c2=O)c1N ... 0
Cn1c(C(F)(F)F)cc(=O)n(-c2c(F)cc(Cl)c(OC(F)F)c2N)c1=O ... 100
Cn1c(C(F)(F)F)cc(=O)n(-c2c(F)cc(Cl)c(OC3CCCC3)c2N)c1=O ... 70
CCn1c(C(F)(F)F)cc(=O)n(-c2c(F)cc(Cl)c(OC)c2N)c1=O ... 0
COc1c(Cl)cc(F)c(-n2c(=O)cc(C(F)(F)F)n(C)c2=O)c1N ... 100
